# Test system: Human alphaherpesvirus 3
# MEASUREMENT NOTES: Anti-VZV activity against YS TK+ in HEL cells
# Format: functional, organism-based
# RUN PARAMETERS: Human alphaherpesvirus 3, HEL
ASSAY READOUT: IC50 (µg/mL)
Please give a number only; it is taken to be in µg/mL.

The value of IC50 measured for the compound Cc1nc2ccccn2c1CSCc1ccccc1 turned out to be 0.23

The value of IC50 measured for the compound Cc1ccc2ncc(CSCc3ccccc3)n2c1 turned out to be 6.4

----------
# Test system: Human betaherpesvirus 5
# MEASUREMENT NOTES: Anti CMV (Cytomegalovirus- virus) activity against AD-169 strain in HEL cells
# Format: functional, organism-based
# RUN PARAMETERS: Human betaherpesvirus 5, HEL
Kindly state IC50 for each of the entries shown.
Please give a number only; it is taken to be in µg/mL.

The value of IC50 measured for the compound Cc1nc2ccccn2c1CSCc1ccccc1 turned out to be 0.12

The value of IC50 measured for the compound Cc1ccc2ncc(CSCc3ccccc3)n2c1 turned out to be 0.3

The value of IC50 measured for the compound Cc1ccn2c(CSCC(F)(F)F)cnc2c1 turned out to be 40

The value of IC50 measured for the compound Cc1ccc(C)n2c(CSCc3ccccc3)cnc12 turned out to be 1.2

----------
# System: Human alphaherpesvirus 3
# MEASUREMENT NOTES: Anti-VZV activity against 07/1 TK- in HEL cells
# Type: functional, organism-based
# RUN PARAMETERS: Human alphaherpesvirus 3, HEL
ASSAY READOUT: IC50 (µg/mL)
Please give a number only; it is taken to be in µg/mL.

The value of IC50 measured for the compound Cc1cccn2c(CSCc3ccccc3)cnc12 turned out to be 0.4

The value of IC50 measured for the compound Cc1cc(Br)cn2c(CSCc3ccccc3)cnc12 turned out to be 1.4

The value of IC50 measured for the compound Cc1ccn2c(CSCCc3ccccc3)cnc2c1 turned out to be 0.95

The value of IC50 measured for the compound Cc1ccc2ncc(CSCc3ccccc3)n2c1 turned out to be 2.58

----------
Kindly state IC50 for each of the entries shown.
# System: Human betaherpesvirus 5
# MEASUREMENT NOTES: Anti CMV (Cytomegalovirus- virus) activity against AD-169 strain in HEL cells
# Assay type: functional, organism-based
# RUN PARAMETERS: Human betaherpesvirus 5, HEL
Please give a number only; it is taken to be in µg/mL.

The value of IC50 measured for the compound Cc1ccn2c(CSCc3ccccc3)c(C)nc2c1 turned out to be 3.4

The value of IC50 measured for the compound Cc1cccn2c(CSCc3ccccc3)c(-c3ccccc3)nc12 turned out to be 1.2

The value of IC50 measured for the compound Cc1ccn2c(CSCc3ccc(Cl)cc3)cnc2c1 turned out to be 1.2

The value of IC50 measured for the compound Cc1cc(Br)c2ncc(CSCc3ccccc3)n2c1 turned out to be 1.1

The value of IC50 measured for the compound Cc1cccn2c(CSCc3ccccc3)cnc12 turned out to be 0.2

The value of IC50 measured for the compound Cc1ccn2c(CSCCc3ccccc3)cnc2c1 turned out to be 0.33

The value of IC50 measured for the compound Cc1cc(Br)cn2c(CSCc3ccccc3)cnc12 turned out to be 0.12

The value of IC50 measured for the compound Nc1nc2c(ncn2COC(CO)CO)c(=O)[nH]1 turned out to be 0.5

The value of IC50 measured for the compound Cc1ccn2c(CSCc3ccccc3)cnc2c1 turned out to be 3.5

The value of IC50 measured for the compound Cc1ccn2c(CSCc3ccccc3Cl)cnc2c1 turned out to be 0.5
